# targetOrSystem: EGFR L858R/T790M/C797S (BaF3-LTC cells) (Homo sapiens, UniProt P00533, C797S/L858R/T790M)
# Construct: expressed in transfected cells; host or cells: BaF3
# Sequence (P00533 25-1210 T790M/C797S/L858R): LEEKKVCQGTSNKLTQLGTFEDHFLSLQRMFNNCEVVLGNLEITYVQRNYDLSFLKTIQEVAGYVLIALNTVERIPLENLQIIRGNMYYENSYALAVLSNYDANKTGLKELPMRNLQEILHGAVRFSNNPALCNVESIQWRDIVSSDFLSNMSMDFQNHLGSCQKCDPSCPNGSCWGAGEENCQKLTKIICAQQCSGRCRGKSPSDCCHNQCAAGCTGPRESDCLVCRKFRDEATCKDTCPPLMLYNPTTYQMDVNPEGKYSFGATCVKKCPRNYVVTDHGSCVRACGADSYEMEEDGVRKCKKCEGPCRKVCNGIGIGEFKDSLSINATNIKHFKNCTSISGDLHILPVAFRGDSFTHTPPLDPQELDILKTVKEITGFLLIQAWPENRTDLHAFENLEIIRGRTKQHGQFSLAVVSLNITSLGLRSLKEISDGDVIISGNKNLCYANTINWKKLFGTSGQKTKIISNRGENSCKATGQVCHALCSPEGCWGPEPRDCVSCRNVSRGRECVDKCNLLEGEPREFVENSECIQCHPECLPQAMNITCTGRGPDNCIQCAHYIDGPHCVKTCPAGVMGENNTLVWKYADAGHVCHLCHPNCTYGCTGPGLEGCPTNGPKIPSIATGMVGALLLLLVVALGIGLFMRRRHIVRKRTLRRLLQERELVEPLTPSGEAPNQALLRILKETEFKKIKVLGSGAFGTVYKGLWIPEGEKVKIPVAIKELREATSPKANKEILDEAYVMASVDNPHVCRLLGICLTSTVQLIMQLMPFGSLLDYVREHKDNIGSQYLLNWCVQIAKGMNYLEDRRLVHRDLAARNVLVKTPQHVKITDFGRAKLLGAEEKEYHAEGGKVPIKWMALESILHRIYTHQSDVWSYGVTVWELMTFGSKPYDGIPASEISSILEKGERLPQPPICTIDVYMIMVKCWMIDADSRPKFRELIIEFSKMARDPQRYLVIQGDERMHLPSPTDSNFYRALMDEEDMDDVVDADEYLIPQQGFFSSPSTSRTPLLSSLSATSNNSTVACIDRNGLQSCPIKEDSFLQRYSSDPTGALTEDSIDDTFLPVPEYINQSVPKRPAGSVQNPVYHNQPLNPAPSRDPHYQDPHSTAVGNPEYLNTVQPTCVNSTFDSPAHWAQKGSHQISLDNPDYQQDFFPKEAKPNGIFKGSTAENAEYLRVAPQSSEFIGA
# runDescription: EGFR degradation HTRF assay, BaF3-LTC cells
# Assay type: cell-based
# conditionParameters: read-out: Dmax (%) BaF3-LTC, BaF3-LTC cells; maximum percentage of inhibition (degradation)

molecule	Dmax
CCOc1cc(N2CCC(N3CCN(CCCc4cccc5c4oc(=O)n5C4CCC(=O)NC4=O)CC3)CC2)c(CC)cc1Nc1ncc(Br)c(Nc2ccc3nc(CC)ncc3c2P(C)(C)=O)n1 (centres unmarked)	91%
CCOc1cc(N2CCC(N3CCN(C(=O)[C@@H]4CCN(c5cc(F)cc6c5oc(=O)n6C5CCC(=O)NC5=O)C4)CC3)CC2)c(CC)cc1Nc1ncc(Br)c(Nc2ccc3nc(CC)ccc3c2P(C)(C)=O)n1 (some centres unmarked)	82.7%
CCc1ccc2c(P(C)(C)=O)c(Nc3nc(Nc4cc(CC)c(N5CCC(N6CCN(C(=O)Cc7ccc8c(c7)oc(=O)n8C7CCC(=O)NC7=O)CC6)CC5)cc4OC)ncc3Br)ccc2n1 (centres unmarked)	91.1%
CCc1ccc2c(P(C)(C)=O)c(Nc3nc(Nc4cc(CC)c(N5CCC(N6CCN(C(=O)C7CN(c8cc(F)cc9c8oc(=O)n9C8CCC(=O)NC8=O)C7)CC6)CC5)cc4OC)ncc3Br)ccc2n1 (centres unmarked)	83.2%
CCc1ccc2c(P(C)(C)=O)c(Nc3nc(Nc4cc(CC)c(N5CCC(N6CCN(C(=O)C7CCN(c8cccc9c8oc(=O)n9C8CCC(=O)NC8=O)CC7)CC6)CC5)cc4OC)ncc3Br)ccc2n1 (centres unmarked)	87.7%

----------
As shown below, each of these compounds has a reported DC50 value.
# targetOrSystem: EGFR (HCC827 cells) (Homo sapiens, UniProt P00533, DEL746-750)
# Construct: endogenous in cells; host or cells: HCC827
# Sequence (P00533 with tags, fused parts or gaps DEL746-750): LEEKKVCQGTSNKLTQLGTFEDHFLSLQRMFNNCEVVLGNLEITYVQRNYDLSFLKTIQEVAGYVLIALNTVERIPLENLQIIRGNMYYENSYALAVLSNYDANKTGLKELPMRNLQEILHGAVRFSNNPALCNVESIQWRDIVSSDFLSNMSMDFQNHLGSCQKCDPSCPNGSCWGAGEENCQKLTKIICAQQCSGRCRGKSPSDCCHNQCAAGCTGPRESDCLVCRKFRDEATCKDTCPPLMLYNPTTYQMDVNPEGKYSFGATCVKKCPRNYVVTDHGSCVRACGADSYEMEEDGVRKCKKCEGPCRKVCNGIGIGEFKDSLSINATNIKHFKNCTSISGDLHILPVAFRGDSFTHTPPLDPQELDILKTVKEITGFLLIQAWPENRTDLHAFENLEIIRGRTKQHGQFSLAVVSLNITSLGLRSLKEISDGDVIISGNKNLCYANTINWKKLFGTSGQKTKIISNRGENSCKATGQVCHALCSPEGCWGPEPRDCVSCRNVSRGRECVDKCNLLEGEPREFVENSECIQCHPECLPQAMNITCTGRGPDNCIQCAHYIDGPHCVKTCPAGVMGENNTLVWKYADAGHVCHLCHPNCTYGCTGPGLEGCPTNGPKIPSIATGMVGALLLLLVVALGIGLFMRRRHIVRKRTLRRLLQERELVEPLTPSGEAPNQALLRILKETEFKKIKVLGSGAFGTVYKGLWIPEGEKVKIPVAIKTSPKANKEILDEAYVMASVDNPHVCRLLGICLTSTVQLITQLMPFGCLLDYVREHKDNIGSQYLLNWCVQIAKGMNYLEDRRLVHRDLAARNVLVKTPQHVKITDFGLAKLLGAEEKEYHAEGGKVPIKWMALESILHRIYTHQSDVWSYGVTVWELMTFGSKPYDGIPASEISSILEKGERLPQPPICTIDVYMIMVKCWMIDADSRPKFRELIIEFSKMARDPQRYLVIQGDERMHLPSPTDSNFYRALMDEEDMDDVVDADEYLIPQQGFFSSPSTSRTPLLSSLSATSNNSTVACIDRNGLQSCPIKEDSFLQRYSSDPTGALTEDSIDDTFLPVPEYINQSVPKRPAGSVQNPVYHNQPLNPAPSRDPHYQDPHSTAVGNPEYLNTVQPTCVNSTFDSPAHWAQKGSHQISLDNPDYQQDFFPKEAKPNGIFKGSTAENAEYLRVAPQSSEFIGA
# runDescription: EGFR degradation HTRF assay, HCC827 cells
# Assay type: cell-based
# conditionParameters: HCC827, 16h treatment
Counter-ions that a name gives are not always drawn.

compound	DC50 [nM]
COc1cc(N2CCN(CCc3ccc(C4CCC(=O)NC4=O)cc3)CC2)c(C)cc1Nc1ncc(Br)c(Nc2ccc3nccnc3c2P(C)(C)=O)n1 (stereo not drawn)	66.7
CCc1cc(Nc2ncc(Br)c(Nc3ccc4nccnc4c3P(C)(C)=O)n2)c(OC)cc1N1CCC(N2CCN(CCc3ccc(NC4CCC(=O)NC4=O)cc3)CC2)CC1 (stereo not drawn)	4.42
CCc1cc(Nc2ncc(Br)c(Nc3ccc4nccnc4c3P(C)(C)=O)n2)c(OC)cc1N1CCC(N2CCN(C(=O)CCCCN3CCN(c4ccc5c(c4)C(=O)N(C4CCC(=O)NC4=O)C5=O)CC3)CC2)CC1 (stereo not drawn)	6.24
COc1cc(N2CCC(N3CCN(C(=O)CCCCN4CCN(c5ccc6c(c5)C(=O)N(C5CCC(=O)NC5=O)C6=O)CC4)CC3)CC2)ccc1Nc1ncc(Cl)c(Nc2ccccc2NS(C)(=O)=O)n1 (stereo not drawn)	19.2
COc1cc(N2CCC(N3CCN(CC4CCC(c5ccc(N6CCC(=O)NC6=O)cc5)CC4)CC3)CC2)ccc1Nc1ncc(Cl)c(Nc2ccccc2P(C)(C)=O)n1 (stereo not drawn)	49.6
COc1cc(N2CCC(N(C)CC3CCN(c4ccc(C5CCC(=O)NC5=O)cc4)CC3)CC2)c(C)cc1Nc1ncc(Br)c(Nc2ccc3nccnc3c2P(C)(C)=O)n1 (stereo not drawn)	9.18
CCc1cc(Nc2ncc(Br)c(Nc3ccc4nccnc4c3P(C)(C)=O)n2)c(OC)cc1N1CCC(N2CCN(CC3CN(c4ccc5c(c4)CN(C4CCC(=O)NC4=O)C5=O)C3)CC2)CC1 (stereo not drawn)	2.69
CCc1cc(Nc2ncc(Br)c(Nc3ccc4nccnc4c3P(C)(C)=O)n2)c(OC)cc1N1CCC(N2CCN(CCCOc3ccc(C4CCC(=O)NC4=O)cc3)CC2)CC1 (stereo not drawn)	15.4
COc1cc(N2CCC(N(C)CC3CCN(c4ccc(N5CCC(=O)NC5=O)cc4)CC3)CC2)c(C)cc1Nc1ncc(Br)c(Nc2ccc3nccnc3c2P(C)(C)=O)n1	17.5
COc1cc(N2CCC(N3CCN(CCC4CCN(c5ccc(C6CCC(=O)NC6=O)cc5)CC4)CC3)CC2)ccc1Nc1ncc(Cl)c(Nc2ccccc2N(C)S(C)(=O)=O)n1 (stereo not drawn)	19
CN(c1ccccc1Nc1nc(Nc2ccc(N3CC4(CN(C(=O)C5CCN(CC6CCN(c7ccc8c(c7)C(=O)N(C7CCC(=O)NC7=O)C8=O)CC6)CC5)C4)C3)c(F)c2)ncc1Cl)S(C)(=O)=O (stereo not drawn)	9.41
COc1cc(N2CCC(N3CCN(C(=O)C[C@H](NC(=O)[C@@H]4C[C@@H](O)CN4C(=O)[C@@H](c4cc(C)no4)C(C)C)c4ccc(-c5scnc5C)cc4)CC3)CC2)ccc1Nc1ncc(Cl)c(Nc2ccccc2P(C)(C)=O)n1	17
COc1cc(N2CCC(N3CCN(CCc4ccc(NC5CCC(=O)NC5=O)cc4)CC3)CC2)ccc1Nc1ncc(Cl)c(Nc2ccccc2N(C)S(C)(=O)=O)n1 (stereo not drawn)	19.1
CCc1cc(Nc2ncc(Br)c(Nc3ccc4nccnc4c3P(C)(C)=O)n2)c(OC)cc1N1CCC(N2CCN(CC3CCN(c4ccc(C5CCC(=O)NC5=O)cc4)CC3)CC2)CC1 (stereo not drawn)	6.26
COc1cc(N2CCC(N(C)CCC3CCN(c4ccc(N5CCC(=O)NC5=O)cc4)CC3)CC2)c(C)cc1Nc1ncc(Br)c(Nc2ccc3nccnc3c2P(C)(C)=O)n1	35.9
COc1cc(N2CCN(CC3CCN(c4ccc(N5CCC(=O)NC5=O)cc4C)CC3)CC2)c(C)cc1Nc1ncc(Br)c(Nc2ccc3nccnc3c2P(C)(C)=O)n1	166
COc1cc(N2CCN(CC3CCN(c4ccc(C5CCC(=O)NC5=O)cc4)CC3)CC2)c(C)cc1Nc1ncc(Br)c(Nc2ccc3nccnc3c2P(C)(C)=O)n1 (stereo not drawn)	21.9
CCc1cc(Nc2ncc(Br)c(Nc3ccc4nccnc4c3P(C)(C)=O)n2)c(OC)cc1N1CCC(N2CCN(CCOCCC(=O)N[C@H](C(=O)N3C[C@H](O)C[C@H]3C(=O)NCc3ccc(-c4scnc4C)cc3)C(C)(C)C)CC2)CC1	28.8
COc1cc(N2CCC(N3CCN(C(=O)CC4CCN(c5ccc(C6CCC(=O)NC6=O)cc5)CC4)CC3)CC2)ccc1Nc1ncc(Cl)c(Nc2ccccc2P(C)(C)=O)n1 (stereo not drawn)	17.2
CCc1cc(Nc2ncc(Br)c(Nc3ccc4nccnc4c3P(C)(C)=O)n2)c(OC)cc1N1CCC(N2CCN(CCc3ccc(C4CCC(=O)NC4=O)c(C)c3)CC2)CC1 (stereo not drawn)	14.3
COc1cc(N2CCN(C3CCN(CCc4ccc(C5CCC(=O)NC5=O)cc4)CC3)CC2)ccc1Nc1ncc(Cl)c(Nc2ccccc2N(C)S(C)(=O)=O)n1 (stereo not drawn) [Example 120, hydrochloride]	14.2

----------
# targetOrSystem: EGFR (HCC827 cells) (Homo sapiens, UniProt P00533, DEL746-750)
# Construct: endogenous in cells; host or cells: HCC827
# runDescription: EGFR degradation HTRF assay, HCC827 cells
# Assay type: cell-based
# conditionParameters: HCC827, 16h treatment
As shown below, each of these molecules has a reported DC50 value.

molecule	DC50 (nM)
COc1cc(N2CCC(NCCCCCc3ccc(C4CCC(=O)NC4=O)cc3)CC2)ccc1Nc1ncc(Cl)c(Nc2ccccc2N(C)S(C)(=O)=O)n1 (stereo not shown)	68.3
CCc1cc(Nc2ncc(Br)c(Nc3ccc4nccnc4c3P(C)(C)=O)n2)c(OC)cc1N1CCC(N2CCN(CCCCCc3ccc(C4CCC(=O)NC4=O)cc3)CC2)CC1 (stereo not shown)	3.95
COc1cc(N2CCC(N3CCN(C(=O)CCN4CCC(c5ccc(C6CCC(=O)NC6=O)cc5)CC4)CC3)CC2)ccc1Nc1ncc(Cl)c(Nc2ccccc2N(C)S(C)(=O)=O)n1 (stereo not shown)	15.9
COc1cc(N2CCC(N3CCN(CCCC4CN(c5ccc6c(c5)C(=O)N(C5CCC(=O)NC5=O)C6=O)C4)CC3)CC2)ccc1Nc1ncc(Cl)c(Nc2ccccc2P(C)(C)=O)n1 (stereo not shown)	22.7

----------
# targetOrSystem: EGFR L858R/T790M/C797S (BaF3-LTC cells) (Homo sapiens, UniProt P00533, C797S/L858R/T790M)
# Construct: expressed in transfected cells; host or cells: BaF3
# runDescription: EGFR degradation HTRF assay, BaF3-LTC cells
# Format: cell-based
# conditionParameters: BaF3-LTC, 16h treatment; read-out: LTC DC50

molecule	DC50
CCc1cc(Nc2ncc(Br)c(Nc3ccc4nccnc4c3P(C)(C)=O)n2)c(OC)cc1N1CCC(N2CCN(CCc3ccc(C4CCC(=O)NC4=O)c(F)c3)C[C@@H]2COC)CC1 (some centres unmarked)	59.3 nM
CCc1cc(Nc2ncc(Br)c(Nc3ccc4nccnc4c3P(C)(C)=O)n2)c(OC)cc1N1CCC(N2CCN(CCc3ccc(C4CCC(=O)NC4=O)c(F)c3)C[C@H]2COC)CC1 (some centres unmarked)	333 nM
CCc1cc(Nc2ncc(Br)c(Nc3ccc4c(=O)n(C)ccc4c3P(C)(C)=O)n2)c(OC)cc1N1CCC(N2CCN(CCc3cc(F)c(C4CCC(=O)NC4=O)c(F)c3)CC2)CC1 (centres unmarked)	5.15 nM
CCc1cc(Nc2ncc(Br)c(Nc3ccc4nccnc4c3P(C)(C)=O)n2)c(OC)cc1N1CCC(N2CCN(C[C@H]3CCN(c4ccc5c(c4)CN(C4CCC(=O)NC4=O)C5=O)C3)CC2)CC1 (some centres unmarked)	9.47 nM
CCc1cc(Nc2ncc(Br)c(Nc3ccc4nccnc4c3P(C)(C)=O)n2)c(OC)cc1N1CCC(N2CCN(C(=O)[C@H]3CCN(c4cccc(C5CCC(=O)NC5=O)c4)C3)CC2)CC1 (some centres unmarked)	48.9 nM
CCc1cc(Nc2ncc(Br)c(Nc3ccc4nccnc4c3P(C)(C)=O)n2)c(OC)cc1N1CCC(N2CCN(CCCCCc3ccc(C4CCC(=O)NC4=O)cc3)CC2)CC1 (centres unmarked)	36.4 nM
CCc1cc(Nc2ncc(Br)c(Nc3ccc4ncccc4c3P(C)(C)=O)n2)c(OC)cc1N1CCC(N2CCN(CCc3cc(F)c(C4CCC(=O)NC4=O)c(F)c3)CC2)CC1 (centres unmarked)	6.8 nM
CCc1cc(Nc2ncc(Br)c(Nc3ccc4nc(C)c(C)cc4c3P(C)(C)=O)n2)c(OC)cc1N1CCC(N2CCN(CCc3cc(F)c(C4CCC(=O)NC4=O)c(F)c3)CC2)CC1 (centres unmarked)	5.79 nM
CCc1cc(Nc2ncc(Br)c(Nc3ccc4nccnc4c3P(C)(C)=O)n2)c(OC)cc1N1CCC(N2CCN(CCCC3CN(c4ccc5c(c4)C(=O)N(C4CCC(=O)NC4=O)C5=O)C3)CC2)CC1 (centres unmarked)	31.4 nM
CCc1cc(Nc2ncc(Br)c(Nc3ccc4nc(C)ccc4c3P(C)(C)=O)n2)c(OC)cc1N1CCC(N2CCN(CCC3CCN(c4ccc5nn(C6CCC(=O)NC6=O)cc5c4)CC3)CC2)CC1 (centres unmarked)	72.9 nM
CCc1cc(Nc2ncc(Br)c(Nc3ccc4nccnc4c3P(C)(C)=O)n2)c(OC)cc1N1CCC(N2CCN(C(=O)[C@H]3CCN(c4ccc(C5CCC(=O)NC5=O)cc4)C3)CC2)CC1 (some centres unmarked)	31.3 nM
CCc1cc(Nc2ncc(Br)c(Nc3ccc4nccnc4c3P(C)(C)=O)n2)c(OC)cc1N1CCC(N2CCN(C(=O)CC3CCN(c4cc(F)c(C5CCC(=O)NC5=O)c(F)c4)CC3)CC2)CC1 (centres unmarked)	24.3 nM
CCc1cc(Nc2ncc(Br)c(Nc3ccc4nc(C5CC5)ccc4c3P(C)(C)=O)n2)c(OC)cc1N1CCC(N2CCN(CCc3cc(F)c(C4CCC(=O)NC4=O)c(F)c3)CC2)CC1 (centres unmarked)	8.61 nM
CCc1cc(Nc2ncc(Br)c(Nc3ccc4nccnc4c3P(C)(C)=O)n2)c(OC)cc1N1CCC(N2CCN(C(=O)C3CN(c4ccc(C5CCC(=O)NC5=O)c(C#N)c4)C3)CC2)CC1 (centres unmarked)	17.1 nM
CCc1cc(Nc2ncc(Br)c(Nc3ccc4nccnc4c3P(C)(C)=O)n2)c(OC)cc1N1CCC(N2CCN(C(=O)C3CN(c4ccc5c(c4)C(=O)N(C4CCC(=O)NC4=O)C5=O)C3)CC2)CC1 (centres unmarked)	1.72 nM
CCc1cc(Nc2ncc(Br)c(Nc3ccc4c(=O)n(C)cnc4c3P(C)(C)=O)n2)c(OC)cc1N1CCC(N2CCN(CCC3CCN(c4cc(F)c(C5CCC(=O)NC5=O)c(F)c4)CC3)CC2)CC1 (centres unmarked)	49.4 nM
CCc1cc(Nc2ncc(Br)c(Nc3ccc4nccnc4c3P(C)(C)=O)n2)c(OC)cc1N1CCC(N2CCN(CCC3CCN(c4ccc(C5CCC(=O)NC5=O)cc4)CC3)CC2)CC1 (centres unmarked)	25.6 nM
CCc1cc(Nc2ncc(Br)c(Nc3ccc4nc(C)ccc4c3P(C)(C)=O)n2)c(OC)cc1N1CCC(N2CCN(CCN(C)c3cccc4c3CN(C3CCC(=O)NC3=O)C4=O)CC2)CC1 (centres unmarked)	7.84 nM
CCc1cc(Nc2ncc(Br)c(Nc3ccc4nc(C)ccc4c3P(C)(C)=O)n2)c(OC)cc1N1CCC(N2CCN(C(=O)C(C)(C)CNc3cc(F)c(C4CCC(=O)NC4=O)c(F)c3)CC2)CC1 (centres unmarked)	5.64 nM
CCc1cc(Nc2ncc(Br)c(Nc3ccc4nccnc4c3P(C)(C)=O)n2)c(OC)cc1N1CCC(N2CCN(CC3CN(c4ccc(C5CCC(=O)NC5=O)c(F)c4)C3)CC2)CC1 (centres unmarked)	34.8 nM
